test-target: hNav1.8 (Homo sapiens, UniProt Q9Y5Y9)
Construct: host or cells: HEK cells, stably transfected
Sequence (Q9Y5Y9 whole entry): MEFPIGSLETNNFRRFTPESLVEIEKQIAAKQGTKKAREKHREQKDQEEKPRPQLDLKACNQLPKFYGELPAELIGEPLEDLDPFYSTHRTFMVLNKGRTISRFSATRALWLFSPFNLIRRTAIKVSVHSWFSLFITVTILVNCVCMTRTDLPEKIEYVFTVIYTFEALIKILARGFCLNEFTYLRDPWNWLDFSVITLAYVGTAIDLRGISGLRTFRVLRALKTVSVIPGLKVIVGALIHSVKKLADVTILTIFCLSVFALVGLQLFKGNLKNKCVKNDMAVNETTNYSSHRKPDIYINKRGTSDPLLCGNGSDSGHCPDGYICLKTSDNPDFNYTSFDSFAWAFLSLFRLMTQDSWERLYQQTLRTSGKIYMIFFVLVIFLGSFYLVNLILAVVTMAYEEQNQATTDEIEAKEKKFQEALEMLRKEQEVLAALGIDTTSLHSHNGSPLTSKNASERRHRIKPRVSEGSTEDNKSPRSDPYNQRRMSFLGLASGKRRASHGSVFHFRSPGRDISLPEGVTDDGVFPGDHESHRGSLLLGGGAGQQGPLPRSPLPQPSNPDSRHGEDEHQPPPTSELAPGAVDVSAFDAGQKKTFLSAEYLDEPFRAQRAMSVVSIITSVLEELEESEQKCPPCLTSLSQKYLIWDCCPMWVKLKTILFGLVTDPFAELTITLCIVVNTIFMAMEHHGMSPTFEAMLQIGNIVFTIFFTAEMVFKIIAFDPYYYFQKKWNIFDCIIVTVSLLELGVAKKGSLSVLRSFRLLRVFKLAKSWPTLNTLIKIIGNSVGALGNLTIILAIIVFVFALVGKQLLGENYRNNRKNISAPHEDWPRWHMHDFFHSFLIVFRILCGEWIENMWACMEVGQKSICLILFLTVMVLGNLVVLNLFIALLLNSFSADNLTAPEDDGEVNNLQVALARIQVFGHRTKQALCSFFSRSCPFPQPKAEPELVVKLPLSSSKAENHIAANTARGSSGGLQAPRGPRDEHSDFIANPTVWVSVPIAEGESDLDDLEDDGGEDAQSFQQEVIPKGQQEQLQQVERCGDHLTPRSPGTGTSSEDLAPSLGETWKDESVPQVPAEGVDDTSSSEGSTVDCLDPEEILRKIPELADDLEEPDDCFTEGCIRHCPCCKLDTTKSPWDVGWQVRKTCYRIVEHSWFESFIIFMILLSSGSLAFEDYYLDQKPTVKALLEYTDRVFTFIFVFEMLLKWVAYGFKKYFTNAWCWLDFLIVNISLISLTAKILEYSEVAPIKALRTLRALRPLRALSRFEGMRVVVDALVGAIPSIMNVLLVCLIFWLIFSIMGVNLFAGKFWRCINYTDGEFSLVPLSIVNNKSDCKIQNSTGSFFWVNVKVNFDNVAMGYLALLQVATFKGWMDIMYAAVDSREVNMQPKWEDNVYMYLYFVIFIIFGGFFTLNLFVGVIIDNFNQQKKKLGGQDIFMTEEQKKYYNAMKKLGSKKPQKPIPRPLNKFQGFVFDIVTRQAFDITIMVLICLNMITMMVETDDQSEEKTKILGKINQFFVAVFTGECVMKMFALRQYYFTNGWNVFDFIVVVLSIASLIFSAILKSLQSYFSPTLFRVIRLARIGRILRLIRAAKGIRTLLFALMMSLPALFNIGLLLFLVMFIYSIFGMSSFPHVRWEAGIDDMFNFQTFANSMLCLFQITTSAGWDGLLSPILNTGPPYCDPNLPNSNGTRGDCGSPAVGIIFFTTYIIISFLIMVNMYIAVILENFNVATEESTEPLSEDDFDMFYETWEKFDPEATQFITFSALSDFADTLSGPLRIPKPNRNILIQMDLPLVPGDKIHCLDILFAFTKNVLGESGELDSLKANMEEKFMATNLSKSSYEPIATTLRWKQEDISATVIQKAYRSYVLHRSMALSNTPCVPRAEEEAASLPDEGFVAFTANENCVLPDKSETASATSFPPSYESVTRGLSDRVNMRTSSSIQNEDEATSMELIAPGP
test-description: hNav1.8 whole-cell patch-clamp electrophysiology (conventional or PatchXpress 7000) in stably transfected HEK cells
Assay type: cell-based
experimental-conditions: estimated IC50 calculated from single point % inhibition; HEK cells expressing hNav1.8; 8 sec prepulse to V1/2, 20 msec step to 0 mV; average of replicates; read-out: Nav1.8 EIC50
experimental-readout: log10 IC50 (log10 of the value in nM)
Hello, just confirming the data are log10 of IC50 with units of nM.

Problem: Report measured log10 IC50 on hNav1.8 (Homo sapiens, UniProt Q9Y5Y9); entry: CC[C@@H](C)[C@@H](N)c1nc2cc(C(C)(C)C)ccc2[nH]1 [Example 23]
Result: 1.65

Problem: Report measured log10 IC50 on hNav1.8 (Homo sapiens, UniProt Q9Y5Y9); entry: C[C@H](O)[C@@H](N)c1nc2cc(C(C)(C)C)ccc2[nH]1 [Example 16]
Result: 3.40

Problem: Report measured log10 IC50 on hNav1.8 (Homo sapiens, UniProt Q9Y5Y9); entry: N#Cc1ccc(-c2ccc3[nH]c(C4(N)CCCC4)nc3c2)cc1 [Example 59]
Result: 2.02

Problem: Report measured log10 IC50 on hNav1.8 (Homo sapiens, UniProt Q9Y5Y9); entry: CO[C@H](C)[C@H](N)c1nc2cc(C(C)C)ccc2[nH]1 [Example 123]
Result: 3.03

Problem: Report measured log10 IC50 on hNav1.8 (Homo sapiens, UniProt Q9Y5Y9); entry: C[C@@H](O)[C@H](N)c1nc2cc(-c3ccc(C#N)cc3)ccc2[nH]1 [Example 40]
Result: 1.89

Problem: Report measured log10 IC50 on hNav1.8 (Homo sapiens, UniProt Q9Y5Y9); entry: COC(C)(C)C(N)c1nc2cc(C(C)(C)C)ccc2[nH]1 (stereo not drawn) [Example 27]
Result: 2.18

Problem: Report measured log10 IC50 on hNav1.8 (Homo sapiens, UniProt Q9Y5Y9); entry: C[C@@H](O)[C@H](N)c1nc2cc(-c3cc(F)c(C#N)c(F)c3)ccc2[nH]1 [Example 89]
Result: 3.38

Problem: Report measured log10 IC50 on hNav1.8 (Homo sapiens, UniProt Q9Y5Y9); entry: CN[C@H](c1nc2cc(C(C)(C)C)ccc2[nH]1)[C@@H](C)O [Example 79]
Result: 2.23

Problem: Report measured log10 IC50 on hNav1.8 (Homo sapiens, UniProt Q9Y5Y9); entry: CC(C)(C)c1ccc2[nH]c([C@H](N)CCO)nc2c1 [Example 134]
Result: 2.55

Problem: Report measured log10 IC50 on hNav1.8 (Homo sapiens, UniProt Q9Y5Y9); entry: CC(C)(N)c1nc2cc(-c3ccccc3C#N)ccc2[nH]1 [Example 74]
Result: 3.13

Problem: Report measured log10 IC50 on hNav1.8 (Homo sapiens, UniProt Q9Y5Y9); entry: CC(C)(C)c1ccc2[nH]c([C@H](N)CCCO)nc2c1 [Example 135]
Result: 3.00

Problem: Report measured log10 IC50 on hNav1.8 (Homo sapiens, UniProt Q9Y5Y9); entry: N#Cc1ccc(-c2ccc3[nH]c([C@@H](N)C4CCCC4)nc3c2)cc1 [Example 32]
Result: 2.21

Problem: Report measured log10 IC50 on hNav1.8 (Homo sapiens, UniProt Q9Y5Y9); entry: N#Cc1ccc(-c2ccc3[nH]c([C@@H]4C[C@@H](O)CN4)nc3c2)cc1 (stereo in doubt) [Example 46]
Result: 2.85

Problem: Report measured log10 IC50 on hNav1.8 (Homo sapiens, UniProt Q9Y5Y9); entry: C[C@@H](C(N)=O)[C@H](N)c1nc2c(Cl)c(-c3ccc(C#N)cc3)ccc2[nH]1 [Example 111]
Result: 2.28

Problem: Report measured log10 IC50 on hNav1.8 (Homo sapiens, UniProt Q9Y5Y9); entry: C[C@@H](N)c1nc2cc(C(C)(C)C)ccc2[nH]1 [Example 10]
Result: 2.78

Problem: Report measured log10 IC50 on hNav1.8 (Homo sapiens, UniProt Q9Y5Y9); entry: C[C@@H](O)[C@H](N)c1nc2c(Cl)c(-c3ccc(C#N)c(F)c3)ccc2[nH]1 [Example 121]
Result: 3.48

Problem: Report measured log10 IC50 on hNav1.8 (Homo sapiens, UniProt Q9Y5Y9); entry: C[C@H](OC(N)=O)[C@H](N)c1nc2cc(C34CC5CC(CC(C5)C3)C4)ccc2[nH]1 [Example 151]
Result: 1.66

Problem: Report measured log10 IC50 on hNav1.8 (Homo sapiens, UniProt Q9Y5Y9); entry: C[C@@H](O)[C@H](N)c1nc2cc(C(C)(C)C)ccc2[nH]1 [Example 78]
Result: 1.77

Recorded values, source patent US8927587B2.
